Test system: SK-OV-3 ovarian
experimentalProtocol: NCI tumour cell line growth inhibition, 48 h
property: TGI

Example cases with answers are listed next.
compound: CC(=O)ON(C(C)=O)c1ccc(-c2nc3ccccc3s2)cc1
targetUnderTest: SK-OV-3 ovarian
TGI: > 100 µM
//
compound: O=C(Nc1ccc(Cl)c(Cl)c1)c1cccc(NC2=C(Cl)C(=O)N(Cc3ccccc3)C2=O)c1
targetUnderTest: SK-OV-3 ovarian
TGI: > 100 µM
//
compound: O=C1C(Cl)=C(Nc2cccc(Cl)c2)C(=O)N1Cc1ccccc1
targetUnderTest: SK-OV-3 ovarian
TGI: 35 µM
//
compound: O=C1c2c(Cl)c(Cl)c(Cl)c(Cl)c2C(=O)N1CCN(c1c(Cl)ssc1=O)c1c(Cl)ssc1=O
targetUnderTest: SK-OV-3 ovarian
TGI: > 100 µM
//
compound: CC(=O)[C@@H]1[C@@H](OC(=O)CCC(C)COC2OC(CO)C(O)C(O)C2O)C[C@H]2[C@@H]3CC=C4C[C@@H](OC5OC(CO)C(OC6OC(C)C(O)C(O)C6O)C(O)C5OC5OC(C)C(O)C(O)C5O)CC[C@]4(C)[C@H]3CC[C@]12C (stereo not given in full)
targetUnderTest: SK-OV-3 ovarian
TGI: > 100 µM

I have 3 compounds here; please give me TGI for each one.
1. O=c1sc2c(s1)SSSSS2
2. O=C(O)C/C(=C\c1ccco1)C(=O)O
3. CCCCC[C@H](O)/C=C/[C@@H]1[C@@H](C/C=C\CCCC(=O)O)[C@@H](O)C[C@H]1O

Result ::
["> 50 µM", "> 100 µM", "> 100 µM"]

I have 2 compounds here; please give me TGI for each one.
1. COc1ccc2[nH]c(=O)c3c4ccccc4cn3c2c1
2. COc1cccc(C2c3cc4c(cc3OC(C)(N3CCCC3)C2C)OCO4)c1OC (stereo not given)

Result ::
["11.5 µM", "69.6 µM"]

====

Test system: T-47D breast
experimentalProtocol: NCI tumour cell line growth inhibition, 48 h
I'd appreciate it if you could supply GI50 values for the items below.

molecule: F
GI50: 2100 µM
//
molecule: CCCCON(OC(=O)c1ccccc1)C(=O)c1ccccc1
GI50: > 100 µM
//
molecule: COc1ccc(C2CC(c3cc(OC)c(OC)c(OC)c3)=NO2)cc1OCCCCOc1cc2c(cc1OC)C(=O)N1CCC[C@H]1C=N2 (some centres undefined)
GI50: 1.31 µM

Query :: What value of GI50 has been reported for the following molecule? CCS(=O)(=O)N1CCC(C(C)n2c(C)c(C(=O)NCc3c(OC)cc(C)[nH]c3=O)c3ccccc32)CC1 (centres undefined)
Result :: > 100 µM

====

I'd appreciate it if you could supply TGI values for the items below.
System: SNB-19 CNS
experimentalProtocol: NCI tumour cell line growth inhibition, 48 h

compound: N#Cc1ccccc1NC(=O)/C(=N\N)C(C(=O)c1ccncc1)C1OC(=O)c2ccccc21 (stereo unspecified)
targetUnderTest: SNB-19 CNS
valueObserved: > 100 µM
--
compound: C=C1C(=O)O[C@H]2[C@H]1CC/C(CNC(=O)Cc1c[nH]c3ccccc13)=C\CC[C@@]1(C)O[C@@H]21
targetUnderTest: SNB-19 CNS
valueObserved: 35.2 µM
--
compound: COc1cc(NS(C)(=O)=O)ccc1Nc1c2ccc([N+](=O)[O-])cc2nc2c(C)cccc12
targetUnderTest: SNB-19 CNS
valueObserved: 14.1 µM
--
compound: Nc1cc2c3c(c1)Oc1cc(N)cc4c1C3c1c(cc(N)cc1O4)O2
targetUnderTest: SNB-19 CNS
valueObserved: > 100 µM
--
compound: CC(=N\N)/C(C)=N/N=C(C)/C(C)=N/N=C(C)/C(C)=N/N=C(C)/C(C)=N/N
targetUnderTest: SNB-19 CNS
valueObserved: > 100 µM
--
compound: Cc1ccc(-c2nc(C)c(C(=O)Nc3ccc(Cl)cc3)s2)cc1
targetUnderTest: SNB-19 CNS
valueObserved: 43.2 µM
--
compound: C/C(CC/C(C)=N/O)=N\O
targetUnderTest: SNB-19 CNS
valueObserved: > 100 µM
--
compound: CC(C)[C@]12O[C@H]1[C@@H]1O[C@]13[C@]1(O[C@H]1C[C@H]1C4=C(CC[C@@]13C)C(=O)OC4)[C@@H]2O
targetUnderTest: SNB-19 CNS
valueObserved: > 100 µM
--
compound: CCc1nc(N)nc(N)c1-c1ccc(NCCN)c([N+](=O)[O-])c1
targetUnderTest: SNB-19 CNS
valueObserved: > 100 µM
--
compound: CC1CC(C2=CC=CCS2)=Nc2ccccc2S1 (stereo unspecified)
targetUnderTest: SNB-19 CNS
valueObserved: > 100 µM

I have 3 compounds here; please give me TGI for each one.
1. CC(=O)ON(C(C)=O)c1ccc(-c2nc3ccccc3s2)cc1
2. Cc1c2cc[n+](C)cc2c(C)c2c1sc1ccccc12
3. COc1ccc(C(=O)c2cc(OC)c(OC)c(OC)c2)cc1

Result ::
1: > 100 µM; 2: 2 µM; 3: > 32.7 µM

I have 6 compounds here; please give me TGI for each one.
1. COc1cc(/C=C/c2ccncc2)cc(OC)c1OC
2. CCN(CC)CCOCC[C@H]1CC[C@H]2[C@@H]3[C@H](C)Cc4cc(OS(N)(=O)=O)ccc4[C@H]3CC[C@]12C
3. O=C(Nc1ccc(Cl)c(Cl)c1)c1cccc(NC2=C(Cl)C(=O)N(Cc3ccccc3)C2=O)c1
4. C=C(CN(C)C)C(=O)c1ccccc1C
5. CCOC(=O)NC(Nc1ncccn1)(C(F)(F)F)C(F)(F)F
6. CC1(C)CC23C4COC(=O)C2CCC1C3CC4=O (stereo unspecified)

Result ::
1. > 100 µM
2. 3.17 µM
3. > 100 µM
4. > 100 µM
5. > 100 µM
6. 81.2 µM

I have 6 compounds here; please give me TGI for each one.
1. NC(=O)NNCc1ccccc1
2. CCOc1ccc2nc(-c3ccc(O)cc3)sc2c1
3. CN(C)C(Cc1cnc[nH]1)C(=O)N1CCCC1C(N)=O (stereo unspecified)
4. COc1cc2c(cc1O)CC[C@@H]1[C@@H]2CC[C@]2(C)[C@@H](NCCN(C)C)CC[C@@H]12
5. Cc1ccc(S(=O)(=O)c2c(N)c3nc4ccccc4n3c3nc4ccccc4nc23)cc1
6. COc1cc(C2c3[nH]c4ccccc4c3C[C@H]3COC(=O)N23)cc(OC)c1OC (stereo partly specified)

Result ::
1: > 100 µM; 2: > 100 µM; 3: > 100 µM; 4: 0.966 µM; 5: > 100 µM; 6: 3.16 µM
